Experiment: plasmodial surface anion channel blockers, osmotic lysis – cell-based, P. falciparum Indochina, OD700, 18 h, primary screen (AID 1157)
Conditions: P. falciparum Indochina infected erythrocytes, osmotic lysis OD700, 18 h; higher = more signal, called active from +8 up or from −8 down
Activity calls are given as the source filed them.
Recorded z-score, one value per entry.

stdin: Quick check: z-score of `C[N+](C)(C)CCCC[C@@H]1NC(=O)[C@@H]2C[C@H](C(=O)O)[C@H](c3cccc(OCCO)c3)N2C1=O` ?
stdout: 0.276 (inactive)

stdin: Can you share its z-score? I mean this molecule: `O=C1N(Cc2ccccc2)c2ccccc2[C@H]2OC(c3ccc(OCCCO)cc3)=N[C@@]12CCS(=O)(=O)c1ccccc1`
stdout: 1.85 (inactive)

stdin: Using the record for O=C1c2ccccc2C(=O)C2CC([C@H]3Oc4ccccc4S(=O)(=O)N4CCC[C@@H]34)=CCC12 (stereo partly drawn) , report its z-score.
stdout: 0.696 (inactive)

stdin: Can you share its z-score? I mean this molecule: `COC(=O)C(CC#Cc1ccc2c(c1)[C@]1(C(=O)N2)[C@H](c2ccc(O)cc2)N2[C@H](c3ccccc3)[C@H](c3ccccc3)OC(=O)[C@H]2[C@@H]1C(=O)O)C(=O)OC`
stdout: -0.367 (inactive)

stdin: Name the reported z-score value associated with the molecule `O=C1N(CCS(=O)(=O)c2ccccc2)Cc2ccccc2C[C@@]12COC(c1ccc(OCCCO)cc1)=N2`
stdout: 2.14 (inactive)

stdin: Can you look up the measured z-score of `CC(C)C[C@@H]1NC(=O)[C@@H]2C[C@H](C(=O)NCCCC[N+](C)(C)C)[C@H](c3cccc(OCCO)c3)N2C1=O` for me?
stdout: 0.645 (inactive)

stdin: Could you share which z-score value was measured for `COc1ccc(C#Cc2ccc3c(c2)[C@]2(C(=O)N3)[C@H](C(N)=O)[C@H]3C(=O)O[C@H](c4ccccc4)[C@H](c4ccccc4)N3[C@@H]2c2ccc(O)cc2)cc1` ?
stdout: 1.23 (inactive)

stdin: Recorded z-score of `COCCOC(=O)N1C(=O)[C@@]2(c3cc(C#Cc4ccc(OC)cc4)ccc31)[C@H](C(=O)N1CCc3cc(OC)c(OC)cc3C1)[C@H]1C(=O)O[C@H](c3ccccc3)[C@H](c3ccccc3)N1[C@@H]2c1ccc(OCCO)cc1` , please.
stdout: 1.42 (inactive)
